Where these numbers come from: patent EP3183252B1

Experiment: pH-dependencies of solubility at 37°C
Assay type: physicochemical
Details: 20mM sodium acetate buffer, aqueous buffer, thermodynamic from solid; 20mM sodium acetate pH 4.5; 37°C; 24 h
PROPERTY: solubility at 24 h (µg/mL)
Give bare numbers, in µg/mL.

Task item: Tell me the measured solubility at 24 h of N#CC[C@H](C1CCCC1)n1cc(-c2ncnc3[nH]ccc23)cn1 [Ruxolitinib phosphate] , please.
Reply: 6800

---

Assay: pH-dependencies of solubility at 37°C
Format: physicochemical
Settings: pH 1.2; 0.1M HCl pH1.2; 37°C; 0.5 h
Where a name gives a salt, the structure may show the parent alone.
Answer each item with its documented solubility at 0.5 h.
Answers are plain numbers, in mg/mL.

| COMPOUND | PROPERTY | UNITS SYMBOL | READOUT VALUE |
| --- | --- | --- | --- |
| N#CC[C@H](C1CCCC1)n1cc(-c2ncnc3[nH]ccc23)cn1 [Ruxolitinib oxalate] | solubility at 0.5 h | mg/mL | 57.8 |

// next entry
Task item: Tell me the measured solubility at 0.5 h of N#CC[C@H](C1CCCC1)n1cc(-c2ncnc3[nH]ccc23)cn1 (stereo in doubt) [Ruxolitinib maleate] , please.
Reply: 12.5
